Tested on: Saccharomyces cerevisiae
Test: protein stability index of tFT-peptide fusion in deletion strain of DOA10 (PSI (0-1 scale)); higher = more stable (slower turnover)
Would you mind telling me the reported protein stability index of each entry?
Enter the number alone.

[ask] # lookup: protein stability index of RVTREDAIYFRI
[reply] 0.699

[ask] So what does the record say about protein stability index for RVTRLDAIYYRI ?
[reply] 0.716

[ask] # protein stability index lookup, item RSLRVLLPMYFR
[reply] 0.658

[ask] What protein stability index value was documented for this sequence, AITLPMCPQLLR ?
[reply] 0.688

[ask] Looking for the measured protein stability index of AITIPMCPLLLR , can you help?
[reply] 0.639

[ask] What does the record list as protein stability index for GLYVCSVGCWFR ?
[reply] 0.573

[ask] // query protein stability index value for entry AITNPMCPLLLR
[reply] 0.658

[ask] Looking for the measured protein stability index of AITLPMCPLLQR , can you help?
[reply] 0.671

[ask] Item under review: AITLPMCPLLAR . Reported protein stability index?
[reply] 0.343

[ask] Fill blank: measured protein stability index of the sequence CLVSLTILLFFR is ____.
[reply] 0.263

[ask] Item under review: TLYMCSVGCWFR . Reported protein stability index?
[reply] 0.614

[ask] So what's the measured protein stability index for this one? RVTNLDAIYFRI
[reply] 0.677

[ask] Record request: protein stability index value, item GLYMCSAGCWFR
[reply] 0.696

[ask] Name the reported protein stability index value associated with the sequence RSLRVLLPLYFRC
[reply] 0.476

[ask] GET /values?readout=protein stability index&item= RSLLVLLPLYFR
[reply] 0.638

[ask] Recorded protein stability index of RSLRVKLPLYFR , please.
[reply] 0.667

[ask] Report protein stability index for RVTRLDAPYFRI please.
[reply] 0.722

[ask] Can you share its protein stability index? I mean this sequence: PSLRVLLPLYFR
[reply] 0.679

[ask] Param item = TITLPMCPLLLR ; retrieve measured protein stability index.
[reply] 0.633

* * *

For each record, write down the corresponding protein stability index.
Tested on: Saccharomyces cerevisiae
Assay: protein stability index of tFT-peptide fusion (C-terminal peptide) (PSI (0-1 scale)); higher = more stable (slower turnover)
Conditions: genetic background: wild type; temperature: 30 C

[ask] Request body: readout protein stability index, system Saccharomyces cerevisiae, query YDRFVNGKSPGM . Return the value.
[reply] 0.701

[ask] Form field - read-out: protein stability index; system: Saccharomyces cerevisiae; submitted item: LLPPGSSSRVAL
[reply] 0.733

[ask] Recall the recorded protein stability index for YVAGECVFVCWE with Saccharomyces cerevisiae and state it.
[reply] 0.657

[ask] Query the reported protein stability index for Saccharomyces cerevisiae; item: QYRLMQKKIVNI
[reply] 0.229

[ask] What value of protein stability index on Saccharomyces cerevisiae does GSRIGTVSIRRI have?
[reply] 0.691

[ask] What measured protein stability index is associated with SCLSGALPPFLA on Saccharomyces cerevisiae?
[reply] 0.668

[ask] API: value(readout= protein stability index, system= Saccharomyces cerevisiae, query= PVLHSPHSLPPR )
[reply] 0.734

[ask] Observed protein stability index on Saccharomyces cerevisiae for NKKKKQRGKKQK , please.
[reply] 0.725

[ask] Form field: protein stability index recorded for SGGQDSFVLRLG with Saccharomyces cerevisiae (enter value)
[reply] 0.669

[ask] # returns recorded protein stability index (system: Saccharomyces cerevisiae) for VARRRQQWMRGS
[reply] 0.517
